Test system: hypothermy induced by reserpine
Assay: Anti-reserpine activity: antagonism against the hypothermy induced by reserpine
Format: in vivo, male dd YS-mice
Conditions: inhibition relative to amitriptyline (AMT); 100 mg/kg orally
OBSERVATION TYPE: Ratio to AMT
Field format: numeric only.

SMILES DATA | MEASURED TARGET | Ratio to AMT
NC(Cc1noc2ccccc12)=NOC(=O)c1ccccc1 | hypothermy induced by reserpine | 1.17
Cl.NC(Cc1noc2ccccc12)=NO | hypothermy induced by reserpine | 1.33
COc1ccc2c(CC(N)=NO)noc2c1.Cl | hypothermy induced by reserpine | 1.42
Cl.NC(CCc1noc2ccccc12)=NO | hypothermy induced by reserpine | 1.12

Req: System hypothermy induced by reserpine. Read-out Ratio to AMT. Item Cc1cccc2c(CC3=NCCN3)noc12.Cl . Report value.
Resp: 1.06

----------
Test system: renal hypertensive rats
Test: Anti-hypertensive activity in renal hypertensive rats (plethysmographic tail blood pressure)
Assay type: in vivo, male Wistar rats
Details: 100 mg/kg p.o.
Structures can show the parent of a compound that is named as a salt.
Label TRUE when Blood pressure Decrease percent < 20%; otherwise FALSE.

These solved cases illustrate the format of a correct answer.
MOLECULE | ASSIGNED CATEGORY
Cl.N=C(Cc1noc2ccccc12)NN | TRUE
Cl.Oc1ccc2onc(CC3=NCCN3)c2c1 | FALSE
N=C(Cc1noc2ccccc12)N1CCN(c2ccccc2)CC1 [Test compound 4 (Table 3), hydrochloride] | TRUE

Req: Here's an entry: CNC(=N)Cc1noc2ccccc12 [Test compound 5 (Table 3), hydrochloride] . Is its Blood pressure Decrease percent below 20%?
Resp: TRUE

Req: Here's an entry: Cl.N=C(N)Cc1noc2ccccc12 . Is its Blood pressure Decrease percent below 20%?
Resp: FALSE
